# System: SN12C renal
# test description: NCI-60 one-dose screen, 48 h (100 = growth as untreated, 0 = no growth, -100 = all killed)
# cond: 10 µM unless noted
Compounds without any hit were thinned out: in the full panel of roughly 83,000, 20% have a hit.
Given measured growth, output class 1 if it is greater than or equal to 80% and class 0 if not.

COc1ccc(C2=NN(c3ccccc3)C(c3ccc(OCc4ccccc4)c(OC)c3)C2)cc1OC (configuration not stated)
class 1
N#Cc1c(-c2ccc(Cl)cc2)nc2n[nH]c(-c3ccc(Cl)cc3)c2c1-c1ccc(C(F)(F)F)cc1
class 0
CC(=O)OCC1OC(OC2C(COC(C)=O)OC(n3cc(COc4ccc5ccc(=O)oc5c4)nn3)C(OC(C)=O)C2OC(C)=O)C(OC(C)=O)C(OC(C)=O)C1OC(C)=O (configuration not stated)
class 1
Cc1cc(C)n(-c2ccc3nnc(-c4ccccc4)n3n2)n1
class 1
C=C1CC[C@@H]2[C@]3(C)COC(c4ccco4)O[C@@H]3CC[C@@]2(C)[C@@H]1C/C=C1/C(=O)OCC1OC(C)=O (some centres not stated)
class 0

Proceed to the following item.
Check if growth >= 80% (inclusive). Item: C=C1CCC2C3(C)COC(c4ccc(F)cc4)OC3CCC2(C)C1C/C=C1/C(=O)OCC1O (configuration not stated)
class 0

---

# reported growth; entries follow
# Test system: RPMI-8226 leukemia
# test description: NCI-60 one-dose screen, 48 h (100 = growth as untreated, 0 = no growth, -100 = all killed)
# cond: 10 µM unless noted
The panel holds about 83,000 compounds, 20% with a hit somewhere; the sample as a whole holds those more often.
Number only, in %; omit the unit.

Nc1nc(-c2ccccc2)c(N=Nc2ccc([N+](=O)[O-])cc2Cl)s1
53
CCN(CC)C(=O)N/C(N)=N/c1nc2ccccc2s1
31.5
Cc1ccc([C@H]2C(C(=O)c3ccc(Cl)cc3)C3(N[C@@H]2c2ccccc2)C(=O)Nc2ccccc23)cc1 (some centres undefined)
6.4
Cc1c(C(=O)NNC(=O)c2ccc(Cl)cc2)nnn1-c1ccc(Br)cc1
98.2
CC(C)c1ccc2c(N)c(C(=O)Nc3cccc(C(F)(F)F)c3)sc2n1
32.1
CCCCn1c(O)c(N=Nc2nc(-c3cc4ccccc4oc3=O)cs2)c2cc(Br)ccc21
108
O=C1Nc2cc(Cl)ccc2/C1=C/c1cccc(OCc2ccccn2)c1
-5.52
N=C1N=C(SCc2nc3ccccc3[nH]2)NC(=O)/C1=C/c1ccc(Cl)cc1
96.9

Fill in growth for C=C1CC[C@@H]2[C@]3(C)COC(c4cn[nH]c4-c4cccc(Cl)c4)O[C@@H]3CC[C@@]2(C)[C@@H]1C/C=C1/C(=O)OCC1O (some centres undefined) tested with RPMI-8226 leukemia.
-11.7

Fetch value of growth on RPMI-8226 leukemia for COc1ccc(C(=O)/C=C/c2ccc3ccccc3c2)cc1S(N)(=O)=O .
-17.5

Name the value of growth reported for O=C(NNc1nc2cc(F)ccc2n2c(CN3CC4CNCC4C3)ccc12)c1ccncn1 (centres undefined) when tested on RPMI-8226 leukemia.
21.6

Name the recorded growth of COc1ccc(C(=O)/C=C/c2c(F)cccc2Cl)cc1S(N)(=O)=O , assay system RPMI-8226 leukemia.
-10.1

State the measured growth (RPMI-8226 leukemia) of C=C1CCC2C3(C)COC(c4ccccc4)OC3CCC2(C)C1CC(Sc1ccccc1)C1=CCOC1=O (centres undefined)
3.18

# return growth of COCOc1ccc2c(=O)c(C)c(C(=O)N[C@@H](Cc3ccccc3)C(O)C(=O)NCCc3ccc(OC)cc3)oc2c1 (some centres undefined) (system: RPMI-8226 leukemia)
100

Lab note: record growth of COc1ccc(N2N=C(c3ccc4c(c3)OCO4)CC2c2cccc(NC(=O)CCNS(=O)(=O)c3ccc(Cl)cc3)c2)cc1 (centres undefined) tested on RPMI-8226 leukemia.
23.2

Look up and report measured growth (RPMI-8226 leukemia) for the following compound: S=C(Nc1ccc(OCc2nc3ccccc3[nH]2)cc1)NC1CCCCC1
101

Report value only: growth, RPMI-8226 leukemia, C#C[C@]1(O)CC[C@H]2[C@@H]3CC=C4c5sc(-c6ccc(O)c(O)c6)nc5CC[C@]4(C)[C@H]3CC[C@@]21C
-50.4

Please report growth with RPMI-8226 leukemia for item CCCSc1nc(NCCc2c[nH]c3ccccc23)c(C#N)c(-c2ccccc2)n1 .
44.5

Provide growth, recorded with RPMI-8226 leukemia, of COc1ccc(/C=C2\C(=O)Nc3ccc(Cl)cc32)cc1OCc1ccccn1
39.5

The reported measurements were obtained from PubChem BioAssay (NCI).
